- experimental.details: in vivo
- Type: in vivo, male Sprague-Dawley rats
- conditions: rat, in vivo, iv, Tissue distribution, Liver
recorded.endpoint: tissue uptake at 1 h

> print(dat)
                           substance.smiles     recorded.endpoint  reported.value
1  O=C(CCCC[C@@H]1SC[C@@H]2NC(=O)N[C@@H]21)NCCC[18F]  tissue uptake at 1 h      0.13 %ID/g

For the next question, use this compound.
What value of measured tissue uptake at 1 h is listed for O=C1N[C@H]2[C@H](CS[C@H]2CCCCC[18F])N1 ?
0.42 %ID/g

====

- experimental.details: in vivo
- Assay type: in vivo, male Sprague-Dawley rats
- conditions: rat, in vivo, iv, Tissue distribution, Bone
recorded.endpoint: tissue uptake at 1 h (%ID/g)
Write down the numeric answer in %ID/g and omit the unit.

> print(dat)
                           substance.smiles     recorded.endpoint  reported.value
1  O=C(CCCC[C@@H]1SC[C@@H]2NC(=O)N[C@@H]21)NCCC[18F]  tissue uptake at 1 h            2.94

Sample O=C1N[C@H]2[C@H](CS[C@H]2CCCCC[18F])N1 — what was its tissue uptake at 1 h?
1.17

====

- experimental.details: in vivo
- Type: in vivo, male Sprague-Dawley rats
- conditions: rat, in vivo, iv, Tissue distribution, Norm mus
recorded.endpoint: tissue uptake at 1 h (%ID/g)
Write the number in %ID/g without appending the unit.

Which tissue uptake at 1 h is reported for this compound? O=C1N[C@H]2[C@H](CS[C@H]2CCCCC[18F])N1 [Biotin 2]
0.35

Repeat for the following compound: O=C(CCCC[C@@H]1SC[C@@H]2NC(=O)N[C@@H]21)NCCC[18F] [Biotin 1]
0.078

====

Here, each record is paired with measured tissue uptake at 5 min data.
- experimental.details: in vivo
- Format: in vivo, male Sprague-Dawley rats
- conditions: rat, in vivo, iv, Tissue distribution, Teste
- Experimental: A clinical isolate of E. Coli was stored at -70°C in a freezing media containing 20% glycerol and 80% dextrose phosphate until use. […] Twenty-four hours after injection, swelling in the right thigh readily appeared, and 24 rats each received 1.67 mg of avidin in saline via the tail vein. […] A total of eleven different tissues were excised, weighed, and counted. […] The excised tissues were blotted, weighed, and counted in a scintillation well counter. […]
Quick note: give the figure in %ID/g, leave out the unit.

> print(dat)
                           substance.smiles  reported.value
1  O=C(CCCC[C@@H]1SC[C@@H]2NC(=O)N[C@@H]21)NCCC[18F]            0.57

# next molecule below
Which tissue uptake at 5 min reading was recorded for the molecule O=C1N[C@H]2[C@H](CS[C@H]2CCCCC[18F])N1 ?
0.59

====

The compounds listed here are annotated with their tissue uptake at 5 min.
- experimental.details: in vivo
- Format: in vivo, male Sprague-Dawley rats
- conditions: rat, in vivo, iv, Tissue distribution, Lung
Write it as a number; the unit %ID/g goes unstated.

> print(dat)
                           substance.smiles       recorded.endpoint  reported.value
1  O=C(CCCC[C@@H]1SC[C@@H]2NC(=O)N[C@@H]21)NCCC[18F]  tissue uptake at 5 min            1.21

Now examine the next entry.
If you can, please state the reported tissue uptake at 5 min value of O=C1N[C@H]2[C@H](CS[C@H]2CCCCC[18F])N1 .
1.38
